Test: in vitro
Settings: human
Exercise: state measured CC50 for each of the compounds provided.

-- ask Record request: CC50 value, item `C/C(=C\[C@@H](O)C[C@@H](C)[C@H]1CC(=O)[C@@]2(C)C3=C(C(=O)C[C@]12C)[C@@]1(C)CCC(=O)C(C)(C)[C@@H]1C[C@@H]3O)C(=O)O`
-- reply > 200 µM

-- ask What value of CC50 has been recorded for this entry: `C/C(=C\CC[C@@H](C)[C@H]1C[C@H](O)[C@@]2(C)C3=CC[C@H]4C(C)(C)C(=O)CC[C@]4(C)C3=CC[C@]12C)C(=O)O`
-- reply 91.6 µM

-- ask # input compound: CC(CC(=O)C[C@@H](C)[C@H]1CC(=O)[C@@]2(C)C3=C(C(=O)C[C@]12C)[C@@]1(C)CC[C@H](O)C(C)(C)[C@@H]1CC3=O)C(=O)O (stereo partly drawn) ; wanted: its CC50
-- reply > 200 µM
